Please go through the items and note down their Burkin Assay in Myotubes, α7 integrin LacZ reporter signal relative to DMSO.
Tested on: α7 integrin (LacZ reporter in α7+/LacZ myotubes)
experimental details: Myotube α7 integrin FDG assay (Burkin assay in myotubes, 96-well)
Format: cell-based, mouse
conditions: myotubes, 0.5 uM
One number for each entry.

CCc1nnc(NC(=O)c2ccc(S(=O)(=O)NCC(C)C)cc2)s1 [MLS000027478-01]; 1.0222
Cc1cccn2c(=O)c3cc(C(=O)NC4CCCCC4)n(C)c3nc12 [MLS001117351-01]; 1.025

Please give Burkin Assay in Myotubes, α7 integrin LacZ reporter signal relative to DMSO for each item listed below.
1. Cc1nc2c(cnn2-c2ccccc2)c(=O)n1/N=C/c1ccccc1 [MLS000860538-01]
2. COC(=O)c1cc(S(=O)(=O)NCC2CCN(Cc3ccc(Cl)cc3)CC2)cn1C [MLS001095033-01]
3. CCCS(=O)(=O)c1nc(S(=O)(=O)c2ccc(C)cc2)c(N2CCCC2)s1 [MLS000113985-01]
4. CC1CCCCC12NC(=O)N(CC(=O)OCc1cccc(F)c1)C2=O (stereo not shown) [MLS002161350-01]

0.985
0.9959
0.9882
0.9844

Please give Burkin Assay in Myotubes, α7 integrin LacZ reporter signal relative to DMSO for each item listed below.
1. O=c1[nH]c(SCc2ccc(Cl)cc2)nc2ccsc12 [MLS000755214-01]
2. COc1ccc(OC)c(S(=O)(=O)Nc2c(NC3CCCCC3)c3ccccc3oc2=O)c1 [MLS001095705-01]

1.01
0.9916

Please give Burkin Assay in Myotubes, α7 integrin LacZ reporter signal relative to DMSO for each item listed below.
1. CN(CCC1CCCCO1)C(=O)CCc1nnc(CCCCc2ccccc2)o1 (stereo not shown) [MLS000735021-01]
2. O=C(COC(=O)Cn1cnc2ccccc21)Nc1cccc([N+](=O)[O-])c1 [MLS001005283-01]

1: 1.013; 2: 0.9811

----------
Tested on: α7 integrin (LacZ reporter in α7LacZ+/− myoblasts)
experimental details: qHTS of the LOPAC library and MLSMR (online screen, α7LacZ+/− myoblasts)
conditions: Mus musculus, Myoblast, 48 h, read-out: Activity at 7.660 uM [%] **
Threshold rule: activation at 7.66 µM greater than or equal to 40% is rule met; below that, rule not met.

Some solved entries appear below for comparison.
O=C(NCCCn1ccnc1)/C(=C/c1cccs1)NC(=O)c1ccco1; rule not met
COc1ccc(S(=O)(=O)N(NC2=NS(=O)(=O)c3ccccc32)C(=O)C(C)C)cc1; rule met
CC1(C)Cc2c(cnn2-c2cccc(F)c2)C(NC(=O)CCc2cnccn2)C1 (stereo not shown); rule not met
CC(=O)Nc1ccc(NC(=O)c2cc(=O)c3cc(C)cc(C)c3o2)cc1; rule not met

Shift focus to the following entry.
Could you verify whether the entry Cc1nc2c(cnn2-c2ccccc2)c(=O)n1/N=C/c1ccccc1 shows activation at 7.66 µM of no less than 40%?
rule not met

----------
Tested on: β-galactosidase in CMV-LacZ C2C12 myotubes
experimental details: CMV-LacZ secondary screen in C2C12 myotubes (β-Gal stabilizing assay)
Format: cell-based, mouse
conditions: 20 uM; CMV-LacZ C2C12 myotubes; 96-well format
Please go through the items and note down their CMV-LACZ in Myotubes (β-galactosidase activity relative to DMSO).
Numbers only.

The cases that follow already have their CMV-LACZ in Myotubes (β-galactosidase activity relative to DMSO) on record.
CC(=O)c1cccc(NC(=O)C2CCCN(S(=O)(=O)c3cccc4nonc34)C2)c1 (stereo not shown) [MLS000937079-01]; 0.9641
CS(=O)(=O)Cc1cccc(C(=O)NN(c2ccccc2)c2ccccc2)c1 [MLS001175473-01]; 0.9592
CCCC(=O)Nc1ccccc1NC(=O)c1ccc(OCC)cc1 [MLS000685139-01]; 1.031

Please give CMV-LACZ in Myotubes (β-galactosidase activity relative to DMSO) for each item listed below.
1. CC(=O)Nc1ccc(NC(=O)[C@@H](NC(=O)c2cccc(C)c2)C(C)C)cc1 [MLS001176897-01]
2. N/C(=N\OC(=O)COc1cc(Cl)c(Cl)cc1Cl)c1ccncc1 [MLS000625140-01]
3. COCc1c(C(=O)OCc2nc3ccsc3c(=O)[nH]2)oc2ccccc12 [MLS002163386-01]
4. O=C(Nc1ccc(N2CCN(C(=O)c3ccccc3F)CC2)cc1)c1cncc(Br)c1 [MLS001060533-01]

1.121
1.107
0.9465
0.7716

Please give CMV-LACZ in Myotubes (β-galactosidase activity relative to DMSO) for each item listed below.
1. O=C(CSc1nnc(C2CC2)n1C1CC1)c1cccs1 [MLS002161757-01]
2. COCCN1C=C(C(=O)OC)C(c2ccccc2Cl)C(C(=O)OC)=C1 [MLS000718886-01]
3. COCCN(CC(=O)Nc1cccc(C)c1C)C(=O)C1CCN(S(=O)(=O)c2ccccc2)CC1 [MLS002156278-01]
4. COc1ccc(C(=O)O/N=C(\N)c2cccc(C)c2)cc1OC [MLS001165323-01]
5. O=C(NC1CCCC1)c1ccc(CS(=O)(=O)Cc2ccccc2F)o1 [MLS001030746-01]
6. O=C(COC(=O)c1cc2ccccc2oc1=O)Nc1ccc(F)cc1F [MLS000516719-01]

1: 1.153; 2: 0.8798; 3: 0.9667; 4: 1.315; 5: 1.098; 6: 1.103

----------
Tested on: β-galactosidase in CMV-LacZ C2C12 myotubes
experimental details: CMV-LacZ secondary screen in C2C12 myotubes (β-Gal stabilizing assay)
Assay type: cell-based, mouse
conditions: 1 uM; C2C12 CMV-LacZ myotubes; fold relative to DMSO
Exam item: assign fulfilled to entries whose CMV-LACZ in Myotubes, signal relative to DMSO is below 1 and not fulfilled to entries at or above 1. Note that a value of exactly 1 receives not fulfilled.

CC(C)(C)c1csc(NC(=O)c2cccnc2)n1; not fulfilled

Field: below-cutoff. Rule: recorded CMV-LACZ in Myotubes, signal relative to DMSO strictly less than 1. Subject: CNC(=O)CSc1nnc(-c2ccc3c(c2)OCO3)n1C
not fulfilled

Field: below-cutoff. Rule: recorded CMV-LACZ in Myotubes, signal relative to DMSO strictly less than 1. Subject: Cc1ccc(Cn2nnc3c(=O)[nH]c(C4CCCN(C(=O)c5ccco5)C4)nc32)cc1 (stereo not drawn)
fulfilled

----------
Test system: β-galactosidase in CMV-LacZ C2C12 myoblasts
experimental details: CMV-LacZ secondary screen in C2C12 myoblasts (β-Gal stabilizing assay)
Assay type: cell-based, mouse
conditions: 20 uM; SU9516 analogs, C2C12 CMV-LacZ, N=2
experimental endpoint: CMV-LACZ in Myoblasts, value relative to DMSO
Answers are plain numbers.

The cases that follow already have their CMV-LACZ in Myoblasts, value relative to DMSO on record.
N#C/C(=C1/C(=O)Nc2ccc(Br)cc21)c1ccccn1; 0.5904
Cc1ccc2c(c1)/C(=C/c1ccccc1)C(=O)N2; 0.8378
CN1CCN(c2ccccc2/C=C2/C(=O)Nc3ccccc32)CC1; 0.4441
Cc1[nH]c(C=C2C(=O)Nc3ccccc32)c(C)c1CCC(=O)O; 2.7827
O=C1Nc2ccccc2/C1=C/c1ccc([N+](=O)[O-])cc1; 0.8983

Now for a further compound.
So the reported CMV-LACZ in Myoblasts, value relative to DMSO for Cc1ccc2c(c1)/C(=C/c1ccc(F)cc1)C(=O)N2 , on β-galactosidase in CMV-LacZ C2C12 myoblasts, turned out to be 0.7222

----------
System: β-galactosidase in CMV-LacZ C2C12 myotubes
experimental details: CMV-LacZ secondary screen in C2C12 myotubes (β-Gal stabilizing assay)
Format: cell-based, mouse
conditions: 20 uM; SU9516 analogs, C2C12 CMV-LacZ, N=2
Please go through the items and note down their CMV-LACZ in Myotubes, value relative to DMSO.
Give bare numbers.

The cases that follow already have their CMV-LACZ in Myotubes, value relative to DMSO on record.
Cc1ccc2c(c1)/C(=C/c1ccc(F)cc1)C(=O)N2 [MLS001202366-01]; 0.8329
Cc1ccc2c(c1)/C(=C/c1ccccc1F)C(=O)N2 [MLS001202330-01]; 0.9168
O=C1Nc2ccccc2/C1=C/c1ccnc2ccccc12 [MLS001182278-01]; 1.0224
COc1ccc(C(=O)/C=C2/C(=O)Nc3ccccc32)cc1 [MLS001163848-01]; 6.7729
CCO/C(C)=C1\C(=O)Nc2ccccc21 [MLS000554109-01]; 0.9100

Now for a further compound.
CMV-LACZ in Myotubes, value relative to DMSO reported for this compound Cc1ccc(/C=C2\C(=O)Nc3ccccc32)o1 [MLS000391588-01] : 0.9212

Provenance of the data: patent US9980943B2
